Where a name gives a salt, the structure may show the parent alone.
As an illustration, consider measured pKi for compounds on 5-HT2B receptor (Homo sapiens).
Sequence (P41595 whole entry): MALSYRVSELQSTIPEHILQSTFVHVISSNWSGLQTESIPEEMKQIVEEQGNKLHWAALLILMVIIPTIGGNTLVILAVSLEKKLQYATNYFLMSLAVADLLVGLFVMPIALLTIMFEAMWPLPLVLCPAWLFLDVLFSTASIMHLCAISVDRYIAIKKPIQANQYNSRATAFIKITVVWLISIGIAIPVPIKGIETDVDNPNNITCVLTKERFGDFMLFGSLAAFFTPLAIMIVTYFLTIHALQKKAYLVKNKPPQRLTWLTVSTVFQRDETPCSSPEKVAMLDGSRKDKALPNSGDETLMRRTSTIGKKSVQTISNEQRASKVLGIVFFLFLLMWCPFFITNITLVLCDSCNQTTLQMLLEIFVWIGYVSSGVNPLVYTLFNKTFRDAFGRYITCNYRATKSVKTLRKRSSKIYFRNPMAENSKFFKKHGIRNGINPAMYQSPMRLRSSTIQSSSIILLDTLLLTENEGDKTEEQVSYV
One number for each entry, as −log10 of the molar value.

Known pKi results, listed for orientation:
compound	tgt	pKi
Cc1nc2c(c(-c3ccc(Cl)cc3)n1)CCNCC2 [Example 51]	5-HT2B receptor (Homo sapiens)	6.85
COc1ccc(-c2nc(C(C)C)nc3c2CCCNC3)cc1 [Example 67]	5-HT2B receptor (Homo sapiens)	7.10

List pKi for every entry below, keeping the order given.
1. CN(C)CCc1cc(-c2ccc(F)cc2)nc(C(C)(C)C)n1 [Example 167]
2. Fc1ccc(-c2nc(Cc3ccccc3)nc3c2CCNCC3)cc1 [Example 54]
3. c1ccc(Cc2nc3c(c(-c4ccccc4)n2)CCNC3)cc1 [Example 78]
4. COc1ccc(-c2nc(Cc3ccccc3)nc3c2CCNC3)cc1 [Example 79]
5. CC(C)c1nc2c(c(-c3ccsc3)n1)CCN(C)C2 [Example 91, hydrochloride]
6. Cc1ccc(-c2nc(C(C)C)nc3c2CNCC3C)cc1 (stereo not shown) [Example 102, hydrochloride]
7. CNC1CCc2c(nc(C(C)C)nc2-c2ccc(F)cc2)C1 (stereo not shown) [Example 108, hydrochloride]

result:
7.85
7.52
6.05
6.36
6.70
6.82
7.38
